# TESTED_ON: RhlR (Pseudomonas aeruginosa, UniProt P54292)
# Construct: expressed in transfected cells; host or cells: E. coli TOP10 carrying pBAD-A 6xHIS-rhlR and pCS26 prhlA-luxCDABE
# Sequence (P54292 whole entry): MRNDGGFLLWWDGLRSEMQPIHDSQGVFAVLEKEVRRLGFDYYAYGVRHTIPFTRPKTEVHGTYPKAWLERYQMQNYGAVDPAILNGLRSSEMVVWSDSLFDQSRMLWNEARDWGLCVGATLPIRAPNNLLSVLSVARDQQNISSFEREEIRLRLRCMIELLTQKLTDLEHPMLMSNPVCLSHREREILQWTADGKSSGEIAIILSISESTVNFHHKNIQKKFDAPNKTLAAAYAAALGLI
# PROTOCOL_TEXT: Two plasmid E. coli RhlR reporter (luciferase)
# Type: cell-based, P. aeruginosa
# CONDITION_DETAILS: read-out: Percent Activity (RhlR reporter)
METRIC_NAME: remaining activity at 100 µM (%)
Lab book: enter the figure in %, no units written.

Known remaining activity at 100 µM results, listed for orientation:
| COMPOUND | remaining activity at 100 µM [%] |
| --- | --- |
| O=c1cc(-c2ccccc2)oc2cc(O)c(O)c(O)c12 | 57.4 |
| O=C1CC(c2ccc(O)cc2)Oc2cc(O)cc(O)c21 (centres unmarked) | 60.5 |
| O=c1cc(-c2ccccc2)oc2cc(O)cc(O)c12 | 39.2 |
| O=c1cc(-c2ccc(O)cc2)oc2cc(O)cc(O)c12 | 84.5 |

Now look at this one.
Prompt line: // returns reported remaining activity at 100 µM for input O=c1cc(-c2ccccc2)oc2c(O)c(O)ccc12
Response line: 54.5

###

Measured remaining activity at 100 µM values are reported for all entries that follow.
# TESTED_ON: RhlR (Pseudomonas aeruginosa)
# Construct: expressed in transfected cells; host or cells: E. coli TOP10 carrying pBAD-A 6xHIS-rhlR and pCS26 prhlA-luxCDABE
# PROTOCOL_TEXT: Two plasmid E. coli RhlR reporter (luciferase)
# Assay type: cell-based, P. aeruginosa
# CONDITION_DETAILS: read-out: Percent Activity (RhlR reporter)
Lab book: enter the figure in %, no units written.

Known remaining activity at 100 µM results, listed for orientation:
| QUERY_SMILES | TESTED_ON | RECORDED_MEASUREMENT |
| --- | --- | --- |
| O=c1cc(-c2ccccc2)oc2ccc(O)c(O)c12 | RhlR (Pseudomonas aeruginosa) | 31.8 |
| O=c1c(O)c(-c2ccc(O)c(O)c2)oc2cc(O)cc(O)c12 | RhlR (Pseudomonas aeruginosa) | 40.2 |

Prompt line: // returns reported remaining activity at 100 µM for input O=C(CCc1ccc(O)cc1)c1c(O)cc(O)cc1O
Response line: 68.4

###

# TESTED_ON: LasR (Pseudomonas aeruginosa)
# Construct: expressed in transfected cells; host or cells: E. coli TOP10 carrying pBAD-A 6xHIS-lasR and pCS26 plasB-luxCDABE
# Sequence (P25084 whole entry): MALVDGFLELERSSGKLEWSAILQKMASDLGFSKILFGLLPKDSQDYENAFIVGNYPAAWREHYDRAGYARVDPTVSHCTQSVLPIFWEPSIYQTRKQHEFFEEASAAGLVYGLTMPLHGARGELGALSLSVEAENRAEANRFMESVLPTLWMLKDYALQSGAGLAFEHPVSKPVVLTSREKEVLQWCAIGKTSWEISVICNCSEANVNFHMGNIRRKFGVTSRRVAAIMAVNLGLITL
# PROTOCOL_TEXT: 10-point autoinducer dose response on LasR reporter with QS inhibitor (competition)
# Type: cell-based, P. aeruginosa
# CONDITION_DETAILS: inhibitor at 100 μM; increasing concentrations of AI
# Description: FIG. 4. QS inhibitors bind non-competitively to LasR. A 10-point dose response curve with increasing concentrations of autoinducer 3-O—C12-HSL (AI) was generated for a variety of QS small molecule inhibitors. In this figure, curve C12 (filled circle) corresponds to the absence of inhibitor. […] Instead, the inhibitors bind elsewhere on LasR to prevent LasR-dependent transcription. […]
METRIC_NAME: competition with autoinducer 3-O—C12-HSL for LasR

| QUERY_SMILES | TESTED_ON | RECORDED_MEASUREMENT |
| --- | --- | --- |
| O=C(CCc1ccc(O)cc1)c1c(O)cc(O)cc1O | LasR (Pseudomonas aeruginosa) | did not compete |
| O=c1cc(-c2ccccc2)oc2cc(O)cc(O)c12 | LasR (Pseudomonas aeruginosa) | did not compete |
| O=c1c(O)c(-c2ccc(O)c(O)c2)oc2cc(O)cc(O)c12 | LasR (Pseudomonas aeruginosa) | did not compete |
| O=c1cc(-c2ccccc2)oc2cc(O)c(O)c(O)c12 | LasR (Pseudomonas aeruginosa) | did not compete |
